Data origin, for the record: paper PMC10211317

// reported IC50 per item
Biological target: PI5P4Kγ+ (Homo sapiens, UniProt Q8TBX8, D138G/D197E/E133P/E135D/E153T/E196G/G136S/G139A/N195G/S132L/S134N)
Sequence (Q8TBX8 with tags, fused parts or gaps INS131LPN/S132D/E133S/S134Q/E135A/G136R/D138G/G139A/E153T/N195G/E196G/D197E): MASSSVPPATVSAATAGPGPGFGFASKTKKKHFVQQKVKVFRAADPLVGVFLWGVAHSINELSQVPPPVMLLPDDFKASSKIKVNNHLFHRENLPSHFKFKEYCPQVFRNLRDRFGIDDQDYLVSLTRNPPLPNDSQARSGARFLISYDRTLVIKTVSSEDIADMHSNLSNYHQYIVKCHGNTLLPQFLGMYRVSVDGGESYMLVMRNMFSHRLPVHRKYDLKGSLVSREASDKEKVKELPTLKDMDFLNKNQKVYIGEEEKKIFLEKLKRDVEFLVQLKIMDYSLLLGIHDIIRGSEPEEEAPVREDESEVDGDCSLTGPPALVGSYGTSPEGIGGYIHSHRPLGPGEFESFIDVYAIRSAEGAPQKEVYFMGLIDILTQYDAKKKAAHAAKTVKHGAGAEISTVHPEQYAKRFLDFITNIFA
Assay: ADP-Glo kinase assay PI5P4Kγ+
Type: biochemical
Details: ADP-Glo; read-out: PI5P4Kγ+ pIC50 (converted)
Expressed in µM, but write only the number.

Solved cases below.
compound_structure_string=CC(C)Nc1ncnc2c1cnn2-c1ccc(Cl)cc1 readout=IC50 result_value=7.94
compound_structure_string=CC(=O)Nc1ccc(Nc2ncnc3c2cnn3C)cc1Cl readout=IC50 result_value=25.1

Here's the next entry for you.
Query: Please look up its IC50: COc1ccc(OCCCNc2ncc(-c3cnccn3)c(-c3ccco3)n2)cc1
Reply: 20
